Can you tell me inhibition at 0.1 µM for the items I'm about to list?
MEASURED ON: human oxytocin receptor (Homo sapiens, UniProt P30559)
Construct: host or cells: CHO cells (pcDNA3.1 vector)
Sequence (P30559 whole entry): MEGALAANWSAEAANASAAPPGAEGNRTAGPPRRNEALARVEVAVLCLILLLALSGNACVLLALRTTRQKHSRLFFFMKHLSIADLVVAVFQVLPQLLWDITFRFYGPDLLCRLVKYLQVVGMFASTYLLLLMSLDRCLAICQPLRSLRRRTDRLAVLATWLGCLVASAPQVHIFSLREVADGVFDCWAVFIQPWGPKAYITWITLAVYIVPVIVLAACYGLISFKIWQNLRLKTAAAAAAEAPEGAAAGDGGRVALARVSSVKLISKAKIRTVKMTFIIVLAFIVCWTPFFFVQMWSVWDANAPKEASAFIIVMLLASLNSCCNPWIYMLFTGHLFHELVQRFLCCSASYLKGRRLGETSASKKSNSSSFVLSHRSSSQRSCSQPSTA
ASSAY EXPLANATION: Oxytocin binding in Chinese Hamster Ovary cell membranes expressing human oxytocin receptors
MEASUREMENT SETUP: 100 nM, CHO cell membranes, [3H]oxytocin, values without parentheses, read-out: OT % inhibition @ 100% nM
One number for each entry, in %.

Fill in inhibition at 0.1 µM for each of the 6 compounds listed.
1. COc1ccccc1-c1ccc(C(=O)N2Cc3ccc(C(=O)N(C)CCN(C)C)n3Cc3ccccc32)cc1
2. COc1cc(-c2ccccc2C(F)(F)F)c(Cl)cc1C(=O)N1Cc2ccc(C(=O)O)n2Cc2ccccc21
3. COc1cc(-c2ccccc2C)c(Cl)cc1C(=O)N1Cc2ccc(C(=O)NCCCN(C)C)n2Cc2ccccc21
4. COc1cccc(-c2ccc(C(=O)N3Cc4ccc(C(=O)N5CCC(N6CCCC6)CC5)n4Cc4ccccc43)cc2C)c1
5. COc1cc(-c2ccccc2C)c(Cl)cc1C(=O)N1Cc2ccc(C(=O)N[C@@H](CCCCNC(=O)OC(C)(C)C)C(N)=O)n2Cc2ccccc21
6. Cc1ccccc1-c1ccc(C(=O)N2Cc3ccc(C(=O)N(C)C4CCN(C)C4)n3Cc3ccccc32)cc1 (stereo not drawn)

## Result
1. 100
2. -4
3. 62
4. 76
5. 74
6. 96

====

Can you tell me inhibition at 0.1 µM for the items I'm about to list?
MEASURED ON: human vasopressin V2 receptor subtype (Homo sapiens)
Construct: host or cells: CHO cells (pZeoSV vector)
Sequence (P30518 whole entry): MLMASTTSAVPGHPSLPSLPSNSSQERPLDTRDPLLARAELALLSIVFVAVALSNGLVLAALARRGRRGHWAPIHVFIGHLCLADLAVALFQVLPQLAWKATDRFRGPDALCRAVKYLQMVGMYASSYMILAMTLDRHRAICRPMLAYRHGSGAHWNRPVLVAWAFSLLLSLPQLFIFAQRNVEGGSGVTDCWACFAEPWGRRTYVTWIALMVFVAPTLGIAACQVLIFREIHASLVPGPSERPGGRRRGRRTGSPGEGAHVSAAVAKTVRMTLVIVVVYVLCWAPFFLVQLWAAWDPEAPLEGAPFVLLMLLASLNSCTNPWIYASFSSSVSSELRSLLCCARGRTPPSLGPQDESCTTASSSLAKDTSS
ASSAY EXPLANATION: Vasopressin binding in Chinese Hamster Ovary cell membranes expressing human vasopressin V2 subtype receptors
MEASUREMENT SETUP: 100 nM, CHO cell membranes, [3H]arginine vasopressin, values without parentheses
Answers are plain numbers, in %.

Fill in inhibition at 0.1 µM for each of the 7 compounds listed.
1. COc1cccc(-c2cc(OC)c(C(=O)N3Cc4ccc(C(=O)NCCC5CCCN5C)n4Cc4ccccc43)cc2Cl)c1 (stereo not shown) [Example 169]
2. Cc1ccccc1-c1ccc(C(=O)N2Cc3ccc(C(=O)NCCCN(C)C)n3Cc3ccccc32)cc1 [Example 76]
3. COc1cc(C(=O)N2Cc3ccc(C(=O)N4CCC(N5CCCC5)CC4)n3Cc3ccccc32)ccc1-c1ccccc1C [Example 142]
4. COc1cccc(-c2ccc(C(=O)N3Cc4ccc(C(=O)NCCCN(C)C)n4Cc4ccccc43)cc2C)c1 [Example 74]
5. COc1cc(C(=O)N2Cc3cccn3Cc3ccccc32)ccc1-c1ccccc1C(F)(F)F [Example 19D]
6. C=CCN1CCN(C(=O)c2ccc3n2Cc2ccccc2N(C(=O)c2ccc(-c4ccccc4OC)c(OC)c2)C3)CC1 [Example 227]
7. COc1ccccc1-c1ccc(C(=O)N2Cc3ccc(C(=O)N[C@@H]4CN5CCC4CC5)n3Cc3ccccc32)cc1C [Example 295]

## Result
1. 5
2. 17
3. -5
4. 14
5. 84
6. 2
7. 22

====

MEASURED ON: human vasopressin V2 receptor subtype (Homo sapiens)
Construct: host or cells: CHO cells (pZeoSV vector)
ASSAY EXPLANATION: Vasopressin binding in Chinese Hamster Ovary cell membranes expressing human vasopressin V2 subtype receptors
MEASUREMENT SETUP: 100 nM, CHO cell membranes, [3H]arginine vasopressin, values without parentheses
MEASURED ENDPOINT: inhibition at 0.1 µM
Please answer using a numeric value trailed by its unit.

COc1ccccc1-c1ccc(C(=O)N2Cc3ccc(C(=O)NCCCN(C)C)n3Cc3ccccc32)cc1C = 26%

Fill in inhibition at 0.1 µM for each of the 4 molecules listed.
1. COc1cccc(-c2ccc(C(=O)N3Cc4ccc(C(=O)NCCN5CCCCC5)n4Cc4ccccc43)cc2OC)c1
2. COc1cccc(-c2cc(OC)c(C(=O)N3Cc4ccc(C(=O)N5CCN(CCCN(C)C)CC5)n4Cc4ccccc43)cc2Cl)c1
3. COc1cccc(-c2cc(OC)c(C(=O)N3Cc4ccc(C(=O)N5CCN(C)CC5)n4Cc4ccccc43)cc2Cl)c1
4. COc1cc(C(=O)N2Cc3ccc(C(=O)NCCCn4ccnc4)n3Cc3ccccc32)ccc1-c1ccccc1C

## Result
["16%", "21%", "7%", "17%"]

Fill in inhibition at 0.1 µM for each of the 2 molecules listed.
1. O=C(c1ccc(-c2ccccc2)nc1)N1Cc2cccn2Cc2ccccc21
2. CN(C)CCCN1CCN(C(=O)c2ccc3n2Cc2ccccc2N(C(=O)c2ccc(-c4cccc5ccccc45)cc2Cl)C3)CC1

## Result
24%
40%

Fill in inhibition at 0.1 µM for each of the 7 molecules listed.
1. Cc1ccccc1-c1ccc(C(=O)N2Cc3ccc(C(=O)N4CCN(CCCN(C)C)CC4)n3Cc3ccccc32)cc1
2. COc1ccccc1-c1ccc(C(=O)N2Cc3ccc(C(=O)N(C)CCN(C)C)n3Cc3ccccc32)cc1C
3. COc1cccc(-c2ccc(C(=O)N3Cc4ccc(C(=O)NCCC5CCCN5C)n4Cc4ccccc43)cc2OC)c1 (centres unmarked)
4. Cc1cc(C(=O)N2Cc3ccc(C(=O)n4ccnc4)n3Cc3ccccc32)ccc1-c1ccccc1C(F)(F)F
5. COc1cccc(-c2ccc(C(=O)N3Cc4ccc(C(=O)N5CCN(CCCN(C)C)CC5)n4Cc4ccccc43)cc2OC)c1
6. O=C(c1ccc2n1Cc1ccccc1N(C(=O)c1ccc(-c3cccc4ccccc34)cc1Cl)C2)N1CCN(CCN2CCOCC2)CC1
7. Cc1ccccc1-c1ccc(C(=O)N2Cc3ccc(C(=O)N4CCN(CCN5CCOCC5)CC4)n3Cc3ccccc32)cc1C

## Result
9%
30%
11%
-2%
27%
22%
23%

====

MEASURED ON: human vasopressin V1a receptor subtype (Homo sapiens)
Construct: host or cells: CHO cells (pZeoSV vector for the Thibonnier line)
Sequence (P37288 whole entry): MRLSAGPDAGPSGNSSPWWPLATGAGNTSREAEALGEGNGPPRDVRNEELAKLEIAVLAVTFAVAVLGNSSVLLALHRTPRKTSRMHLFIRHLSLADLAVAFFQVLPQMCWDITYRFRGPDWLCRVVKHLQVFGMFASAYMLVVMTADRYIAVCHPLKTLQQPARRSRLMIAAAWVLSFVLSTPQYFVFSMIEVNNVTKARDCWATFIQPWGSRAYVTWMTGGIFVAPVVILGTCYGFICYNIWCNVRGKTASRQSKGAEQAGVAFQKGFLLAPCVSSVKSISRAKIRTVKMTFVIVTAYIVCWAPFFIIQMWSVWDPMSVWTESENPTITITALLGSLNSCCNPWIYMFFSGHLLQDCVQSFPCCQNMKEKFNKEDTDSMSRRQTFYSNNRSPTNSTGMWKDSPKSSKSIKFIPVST
ASSAY EXPLANATION: Vasopressin binding in Chinese Hamster Ovary cell membranes expressing human vasopressin V1a subtype receptors
MEASUREMENT SETUP: 100 nM, CHO cell membranes, [3H]Manning ligand, values without parentheses
MEASURED ENDPOINT: inhibition at 0.1 µM (%)
Give bare numbers, in %.

COc1cc(-c2ccccc2C)c(Cl)cc1C(=O)N1Cc2ccc(C(=O)N(C)C3CCN(C)C3)n2Cc2ccccc21 (stereo not shown) = 40
COc1cccc(-c2ccc(C(=O)N3Cc4ccc(C(=O)NCCCn5ccnc5)n4Cc4ccccc43)cc2C)c1 = 10
COc1ccccc1-c1ccc(C(=O)N2Cc3ccc(C(=O)N(C)C4CCN(C)CC4)n3Cc3ccccc32)cc1C = 28

Then there is this molecule:
## Task For Cc1ccccc1-c1ccc(C(=O)N2Cc3ccc(C(=O)NCCN4CCCCC4)n3Cc3ccccc32)cc1C , what is its reported inhibition at 0.1 µM?
## Result 42

====

MEASURED ON: human oxytocin receptor (Homo sapiens, UniProt P30559)
Construct: host or cells: CHO cells (pcDNA3.1 vector)
ASSAY EXPLANATION: Oxytocin binding in Chinese Hamster Ovary cell membranes expressing human oxytocin receptors
MEASUREMENT SETUP: 100 nM, CHO cell membranes, [3H]oxytocin, values without parentheses, read-out: OT % inhibition @ 100% nM
Respond with TRUE for inhibition at 0.1 µM values of 70% and above, FALSE for values below.

Here are 3 molecules together with their reported answers.
COc1ccccc1-c1ccc(C(=O)N2Cc3ccc(C(=O)NCCN4CCCCC4)n3Cc3ccccc32)cc1OC = FALSE
COc1ccccc1-c1ccc(C(=O)N2Cc3ccc(C(=O)N4CCC(N5CCCC5)CC4)n3Cc3ccccc32)cc1 = TRUE
Cc1ccccc1-c1ccc(C(=O)N2Cc3ccc(C(=O)N(C)CCN(C)C)n3Cc3ccccc32)cc1 = TRUE

## Task Is inhibition at 0.1 µM at least 70%? Consider Cc1ccccc1-c1ccc(C(=O)N2Cc3ccc(C(=O)NCCCn4ccnc4)n3Cc3ccccc32)cc1C
## Result FALSE

## Task Is inhibition at 0.1 µM at least 70%? Consider Cc1cc(C(=O)N2Cc3cccn3Cc3ncccc32)ccc1-c1ccccc1C(F)(F)F [Example 323F]
## Result FALSE

## Task Is inhibition at 0.1 µM at least 70%? Consider COc1cc(C(=O)N2Cc3ccc(C(=O)NCCN4CCCCC4)n3Cc3ccccc32)ccc1-c1cccc2ccccc12
## Result FALSE

====

Can you tell me melting point for the items I'm about to list?

O=C(c1ccc(-c2cccc3ccccc23)nc1)N1Cc2cccn2Cc2ccccc21 = 155 to 158 °C
COc1cc2c(cc1OC)N(C(=O)c1ccc(-c3ccccc3C(F)(F)F)c(C)c1)Cc1cccn1C2 = 187 to 188 °C
COc1cc(-c2ccccc2F)c(Cl)cc1C(=O)N1Cc2ccc(C(=O)O)n2Cc2ccccc21 = 207 to 208 °C
Cc1cc(C(=O)N2Cc3ccc(C(=O)N(CCCN(C)C)CCCN(C)C)n3Cc3ccccc32)ccc1-c1ccccc1C(F)(F)F = 55 to 64 °C
Cc1cc(C(=O)N2Cc3ccc(C(=O)O)n3Cc3ccccc32)ccc1-c1ccccc1C(F)(F)F = 233 to 235 °C

Fill in melting point for each of the 7 compounds listed.
1. Cc1cc(C(=O)N2Cc3cccn3Cc3ccccc32)cc(C)c1-n1c(C)ccc1C
2. O=C(c1ccc(-c2cccc3ccccc23)cc1Cl)N1Cc2cccn2Cc2ccccc21
3. Cc1cc(C(=O)N2Cc3cccn3Cc3ccccc32)ccc1-c1ccncc1
4. COc1cc(C(=O)N2Cc3cccn3Cc3ccccc32)ccc1-n1c(C)ccc1C
5. Cc1cc(C(=O)N2Cc3ccc(C(=O)N4CCN(CCCN(C)C)CC4)n3Cc3ccccc32)ccc1-c1ccccc1C(F)(F)F
6. COc1cc(C(=O)N2Cc3ccc(C(=O)N4CCC[C@H]4CN4CCCC4)n3Cc3ccccc32)ccc1-c1ccccc1C(F)(F)F
7. COc1cc(C(=O)N2Cc3ccc(C(=O)N(C)CCN(C)C)n3Cc3ccccc32)ccc1-c1ccccc1C(F)(F)F

## Result
1. 197 to 199 °C
2. 115 to 117.5 °C
3. 208 to 210 °C
4. 141 to 144 °C
5. 85 to 95 °C
6. 125 to 128 °C
7. 187 to 190 °C

Fill in melting point for each of the 2 compounds listed.
1. COc1cc(C(=O)N2Cc3ccc(C(=O)N(C)CCCN(C)C)n3Cc3ccccc32)ccc1-c1ccccc1C(F)(F)F
2. Cc1ccc(-c2ccc(C(=O)N3Cc4cccn4Cc4ccccc43)cc2)c2ccccc12

## Result
140 to 142 °C
160 to 162 °C

Fill in melting point for each of the 2 compounds listed.
1. COc1cc(-c2ccccc2C)ccc1C(=O)N1Cc2ccc(C(=O)O)n2Cc2ccccc21
2. COc1ccccc1-c1ccc(C(=O)N2Cc3ccc(C(=O)O)n3Cc3ccccc32)cc1C

## Result
201 to 204 °C
174 to 184 °C
